Listing of recorded Flk Kinase % Inhibition (P.110) by entry.
- Tested on: FLK-1 receptor
- METHOD_SUMMARY: FLK-1 Assay (cellular/catalytic ELISA, VEGF-stimulated phosphotyrosine)
- Assay type: cell-based
- Set-up: concentration or dose not given beside the values
- MEASUREMENT_CONDITIONS: protocol P.110
Write the answer as a number in %, unit excluded.

query: Flk Kinase % Inhibition (P.110) lookup needed for O=C1Nc2ccc(S(=O)(=O)N3CCOCC3)cc2C1=Cc1ccoc1 [10739/F10] , thanks.
result: 12.3

query: Give the measured Flk Kinase % Inhibition (P.110) of Cc1c(Br)ccc2c1C(=Cc1cn(C)c3ccccc13)C(=O)N2 [10740/C07] .
result: 1.1

query: Sample CNS(=O)(=O)c1ccc2c(c1)C(=Cc1ccc(OC)c(O)c1)C(=O)N2 [10738/D04] — what was its Flk Kinase % Inhibition (P.110)?
result: −13.1

query: Look up Flk Kinase % Inhibition (P.110) for this compound: CNS(=O)(=O)c1ccc2c(c1)C(=Cc1cccc(OCc3ccccc3)c1)C(=O)N2 [10739/D03]
result: −18.3

query: Need Flk Kinase % Inhibition (P.110) of CNS(=O)(=O)c1ccc2c(c1)C(=Cc1cccc(O)c1O)C(=O)N2 [10738/D06] , thanks.
result: −26.7

query: Suppose we examine the compound O=C1Nc2c(Br)cc(Br)cc2C1=CC1COc2ccccc2O1 (stereo not shown) [10739/A05] ; what Flk Kinase % Inhibition (P.110) value has been reported?
result: −11.0

----------
As shown below, each of these compounds has a reported Flk Kinase % Inhibition (P.110) value.
- System: FLK-1 receptor
- METHOD_SUMMARY: FLK-1 Assay (cellular/catalytic ELISA, VEGF-stimulated phosphotyrosine)
- Assay type: cell-based
- Parameters: concentration or dose not given beside the values
Number in %, nothing else.

Some solved cases for reference:
COMPOUND | UNIT_NAME | Flk Kinase % Inhibition (P.110)
CCOc1cccc(C=C2C(=O)Nc3c(Br)cc(Br)cc32)c1O [10734/A02] | % | 4.1
Cc1c(Br)cc(Br)c2c1C(=Cc1ccc(O)c(Br)c1)C(=O)N2 [10734/H09] | % | −2.2
Cc1c(Br)cc(Br)c2c1C(=Cc1ccc(C(F)(F)F)cc1)C(=O)N2 [10722/H11] | % | −3.3
Cc1c(Br)cc(Br)c2c1C(=Cc1ccc3c(c1)Cc1ccccc1-3)C(=O)N2 [10728/H06] | % | 7.9
CCc1cc(CC)c(C=C2C(=O)Nc3c(Br)cc(Br)c(C)c32)[nH]1 [10727/H03] | % | 4.3
Cc1cc(C=C2C(=O)Nc3c(Br)cc(Br)c(C)c32)cc(C)c1OCc1ccccc1 [10733/H07] | % | 7.6
Cc1c(Br)cc(Br)c2c1C(=Cc1ccccc1[N+](=O)[O-])C(=O)N2 [10726/H02] | % | −8.5
CNS(=O)(=O)c1ccc2c(c1)C(=Cc1cccc3ccccc13)C(=O)N2 [10735/D09] | % | 22.6
Cc1ccc(C=C2C(=O)Nc3ccc(S(=O)(=O)Nc4ccc(C(F)(F)F)cc4)cc32)cc1 [10736/E05] | % | 30.2
CNS(=O)(=O)c1ccc2c(c1)C(=Cc1cccc(C(F)(F)F)c1)C(=O)N2 [10735/D05] | % | 29.5

query: Can you look up the measured Flk Kinase % Inhibition (P.110) of CNS(=O)(=O)c1ccc2c(c1)C(=Cc1cccc(Cl)c1)C(=O)N2 [10736/D06] for me?
result: 12.2

query: Form field: reported Flk Kinase % Inhibition (P.110) of COc1cccc(C=C2C(=O)Nc3ccc(Br)c(C)c32)c1 [10736/C10]
result: 1.1

query: # input compound: O=C1Nc2ccc(S(=O)(=O)N3CCOCC3)cc2C1=Cc1ccc(Cl)cc1 [10736/F02] ; wanted: its Flk Kinase % Inhibition (P.110)
result: 23.9

query: What Flk Kinase % Inhibition (P.110) value was documented for this compound, Cc1c(Br)cc(Br)c2c1C(=Cc1cc(Br)c(O)c(C(C)(C)C)c1)C(=O)N2 [10721/H10] ?
result: 10.2

query: State the recorded Flk Kinase % Inhibition (P.110) for this entry: COc1ccc2ccccc2c1C=C1C(=O)Nc2c(Br)cc(Br)c(C)c21 [10729/H02]
result: 14.3

query: Please look up its Flk Kinase % Inhibition (P.110): COc1c(C)cc(C=C2C(=O)Nc3c(Br)cc(Br)c(C)c32)cc1C [10733/H06]
result: 30.0

query: GET /values?readout=Flk Kinase % Inhibition (P.110)&item= Cc1ccc(C=C2C(=O)Nc3ccc(I)cc32)cc1 [10736/B05]
result: −0.5

query: So what does the record say about Flk Kinase % Inhibition (P.110) for O=C1Nc2ccc(S(=O)(=O)Nc3ccc(C(F)(F)F)cc3)cc2C1=Cc1cc(Cl)ccc1O [10734/E04] ?
result: 10.7

query: For Cc1c(Br)cc(Br)c2c1C(=Cc1cc(C(C)C)c(O)c(C(C)C)c1)C(=O)N2 [10724/H06] , what is its reported Flk Kinase % Inhibition (P.110)?
result: −5.1

query: Which Flk Kinase % Inhibition (P.110) value belongs to Cc1c(Br)cc(Br)c2c1C(=C1C(=O)N(C)c3ccccc31)C(=O)N2 [10731/H10] ?
result: 25.9

query: Look up Flk Kinase % Inhibition (P.110): Cc1c(Br)cc(Br)c2c1C(=Cc1ccc(N(C)C)c3ccccc13)C(=O)N2 [10724/H02]
result: 11.5

query: Entry under review: CNS(=O)(=O)c1ccc2c(c1)C(=Cc1ccccc1C)C(=O)N2 [10735/D02] . Reported Flk Kinase % Inhibition (P.110)?
result: 0.9

query: // query Flk Kinase % Inhibition (P.110) value for entry Cc1c(Br)ccc2c1C(=Cc1cccc3ccccc13)C(=O)N2 [10735/C09]
result: 24.5

query: I'd like to know its Flk Kinase % Inhibition (P.110). The compound in question is CCOC(=O)c1[nH]c(C=C2C(=O)Nc3c(Br)cc(Br)c(C)c32)c(C(=O)OC)c1C [10726/H03]
result: 0.4

query: Flk Kinase % Inhibition (P.110) lookup needed for Cc1ccsc1C=C1C(=O)Nc2c(Br)cc(Br)c(C)c21 [10729/H05] , thanks.
result: 22.4

query: I'd like to know its Flk Kinase % Inhibition (P.110). The compound in question is Cc1c(Br)ccc2c1C(=Cc1ccc(C(C)(C)C)cc1)C(=O)N2 [10734/C10]
result: 10.1

query: Which measured Flk Kinase % Inhibition (P.110) value corresponds to CNS(=O)(=O)c1ccc2c(c1)C(=Cc1c(F)cccc1F)C(=O)N2 [10735/D08] ?
result: 21.6

query: Given the compound COc1c(Br)cc(C=C2C(=O)Nc3c(Br)cc(Br)c(C)c32)cc1C(C)(C)C [10732/H07] , what is its reported Flk Kinase % Inhibition (P.110)?
result: 9.7

query: Give the measured Flk Kinase % Inhibition (P.110) of Cc1c(Br)cc(Br)c2c1C(=Cc1ccc(C(C)(C)C)cc1)C(=O)N2 [10734/H10] .
result: 3.9

query: Which Flk Kinase % Inhibition (P.110) is reported for this compound? CCc1c(C)[nH]c(C=C2C(=O)Nc3c(Br)cc(Br)c(C)c32)c1C [10719/H05]
result: 18.5
